Data provenance is patent US20120135923A1.

molecular target: T1, hMC3-R (human, UniProt P41968 1-323); assay: competition with [125I]-NDP-α-MSH, CHO-K1 membranes
T1 construct: whole, on cells; Assayed as membranes of CHO-K1 cells expressing the receptor; also called hMC-R receptor subtype 3; melacortin-3 (MC3-R)
T1 sequence (P41968 whole entry): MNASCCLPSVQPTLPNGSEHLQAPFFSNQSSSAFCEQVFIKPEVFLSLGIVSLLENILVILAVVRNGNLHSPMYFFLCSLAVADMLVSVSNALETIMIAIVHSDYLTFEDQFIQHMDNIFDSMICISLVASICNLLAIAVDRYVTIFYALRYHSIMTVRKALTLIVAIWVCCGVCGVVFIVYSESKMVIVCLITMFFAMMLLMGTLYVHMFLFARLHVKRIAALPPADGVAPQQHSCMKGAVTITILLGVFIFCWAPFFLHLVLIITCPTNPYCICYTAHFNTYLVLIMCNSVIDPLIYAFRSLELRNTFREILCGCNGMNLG
Bridge positions count the residues as written; N and C are the ends. Square brackets hold non-standard residues; d marks the D form. Nle = CCCC[C@H](N)C(=O)O
This listing pairs binders with measured Ki.
ATTRIBUTE_MEASURED: Ki (nM)

* Ac-[Nle]C[dA]H[dF]RWGC-NH2 (disulfide 2-9; SMILES CCCC[C@H](NC(C)=O)C(=O)N[C@H]1CSSC[C@@H](C(N)=O)NC(=O)CNC(=O)[C@H](Cc2c[nH]c3ccccc23)NC(=O)[C@H](CCCNC(=N)N)NC(=O)[C@@H](Cc2ccccc2)NC(=O)[C@H](Cc2c[nH]cn2)NC(=O)[C@@H](C)NC1=O) [Ac-Nle-c(Cys-D-Ala-His-D-Phe-Arg-Trp-Gly-Cys)-NH2] | 149
* Ac-[Nle]C[dL]H[dF]RWC-NH2 (disulfide 2-8; SMILES CCCC[C@H](NC(C)=O)C(=O)N[C@H]1CSSC[C@@H](C(N)=O)NC(=O)[C@H](Cc2c[nH]c3ccccc23)NC(=O)[C@H](CCCNC(=N)N)NC(=O)[C@@H](Cc2ccccc2)NC(=O)[C@H](Cc2c[nH]cn2)NC(=O)[C@@H](CC(C)C)NC1=O) [Ac-Nle-c(Cys-D-Leu-His-D-Phe-Arg-Trp-Cys)-NH2] | 6.82
